# maps each entry to its IC50
Molecular target: UniProt Q70I53
Sequence (Q70I53 1-369): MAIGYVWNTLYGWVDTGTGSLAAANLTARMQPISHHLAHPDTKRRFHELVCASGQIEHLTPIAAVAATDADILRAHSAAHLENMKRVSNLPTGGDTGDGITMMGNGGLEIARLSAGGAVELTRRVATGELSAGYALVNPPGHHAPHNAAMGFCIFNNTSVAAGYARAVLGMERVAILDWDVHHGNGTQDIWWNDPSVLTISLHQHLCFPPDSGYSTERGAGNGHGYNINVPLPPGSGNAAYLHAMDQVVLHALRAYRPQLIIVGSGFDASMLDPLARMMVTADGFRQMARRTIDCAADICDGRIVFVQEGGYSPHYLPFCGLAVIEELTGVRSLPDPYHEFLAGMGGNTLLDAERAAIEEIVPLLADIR
Assay: Two-step fluorescence assay for determination of IC50
Assay type: biochemical
Conditions: HDAC-like amidohydrolase; ε-acetylated lysine substrate, trypsin release of 7-amino-4-methylcoumarin; four parameter fit; read-out: IC50 values HDAH
Hi! Could you send only the number? It should be in nM, unit omitted.

Examples with answers:
querySmiles | measuredTarget | experimentalValue
Cc1ccc(NC(=O)C(F)(F)C(F)(F)C(F)(F)C(F)(F)C(F)(F)C(F)(F)C(=O)NO)cc1 | UniProt Q70I53 | 860
Cc1ccc(NC(=O)C(F)(F)C(F)(F)C(F)(F)C(F)(F)C(F)(F)C(F)(F)C(=O)NO)cc1C | UniProt Q70I53 | 660

Consider the record given below.
Would you mind telling me what IC50 value was observed for `O=C(NO)C(F)(F)C(F)(F)C(F)(F)C(F)(F)C(F)(F)C(F)(F)C(=O)Nc1ccc(-c2cnnn2-c2ccccc2)cc1` ?
10400
